Biological target: KAT2A (Homo sapiens (Human))
Sequence (Q92830 whole entry): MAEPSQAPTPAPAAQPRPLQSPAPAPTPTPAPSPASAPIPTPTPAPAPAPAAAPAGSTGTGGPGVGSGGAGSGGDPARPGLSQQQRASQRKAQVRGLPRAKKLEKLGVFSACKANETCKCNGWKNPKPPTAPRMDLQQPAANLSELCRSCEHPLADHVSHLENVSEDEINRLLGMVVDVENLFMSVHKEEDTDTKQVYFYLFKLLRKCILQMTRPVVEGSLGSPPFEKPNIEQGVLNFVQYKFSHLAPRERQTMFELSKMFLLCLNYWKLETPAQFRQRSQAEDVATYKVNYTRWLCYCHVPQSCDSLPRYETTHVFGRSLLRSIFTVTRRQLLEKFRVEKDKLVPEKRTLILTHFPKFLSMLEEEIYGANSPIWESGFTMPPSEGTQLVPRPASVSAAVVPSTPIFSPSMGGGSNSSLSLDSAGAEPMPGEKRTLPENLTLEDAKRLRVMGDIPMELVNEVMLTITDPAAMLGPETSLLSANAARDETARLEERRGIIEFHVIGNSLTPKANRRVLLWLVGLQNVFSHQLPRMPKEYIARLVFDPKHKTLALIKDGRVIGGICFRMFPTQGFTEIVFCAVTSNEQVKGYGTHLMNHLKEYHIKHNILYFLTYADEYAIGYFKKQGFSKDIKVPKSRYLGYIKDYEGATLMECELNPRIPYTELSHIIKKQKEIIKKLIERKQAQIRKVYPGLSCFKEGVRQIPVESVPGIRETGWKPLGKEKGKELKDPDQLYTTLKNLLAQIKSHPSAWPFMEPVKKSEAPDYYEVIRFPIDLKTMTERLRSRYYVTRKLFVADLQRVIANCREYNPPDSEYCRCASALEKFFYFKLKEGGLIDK
Assay: KAT2A acetyltransferase biochemical assay (RapidFire mass spectrometry, AcCoA to CoA)
Conditions: read-out: KAT2A Ki at 1 μM AcCoA, 5 μM H3 1-21 peptide, 0.5 nM KAT2A, 90-minute reaction
Measure: Ki (pM)

The following compounds have reported results that may help.
>  <Compound>
Cn1cc(-c2ccc(O[C@@H]3CC[C@@H](NC(=O)[C@]4(F)CNC5(CCC5)C4)C3)c(-c3cccc(F)c3C3CCC3)c2)c(C(=O)O)n1 (single isomer, unassigned) [Example J9]

>  <Measure>
Ki

>  <Unit Label>
pM

>  <Test Value>
2160

$$$$
>  <Compound>
O=C(O)c1ccc(O[C@@H]2CC[C@@H](NC(=O)[C@@]3(F)CNC4(CCCC4)C3)C2)c(-c2cccc(F)c2C2CCC2)c1 (single isomer, unassigned) [Example A36]

>  <Measure>
Ki

>  <Unit Label>
pM

>  <Test Value>
100

$$$$
>  <Compound>
CC1(C)C[C@@](F)(C(=O)N[C@@H]2CC[C@@H](Oc3ccc(C(C)(C)C(=O)NS(=O)(=O)N4CCC4)cc3-c3cccc(F)c3C3CCC3)C2)CN1 (single isomer, unassigned) [Example C7]

>  <Measure>
Ki

>  <Unit Label>
pM

>  <Test Value>
70

$$$$

(1) CCS(=O)(=O)NC(=O)C(C)c1ccc(O[C@@H]2CC[C@@H](NC(=O)[C@@]3(F)CNC4(CCC4)C3)C2)c(-c2ccccc2C(C)C)c1 (single isomer, unassigned) [Example C89]
(2) CCc1c(F)cccc1-c1cc(C(C)(C)C(=O)NS(C)(=O)=O)ccc1O[C@@H]1CC[C@@H](NC(=O)[C@@]2(F)CNC3(CCC3)C2)C1 (single isomer, unassigned) [Example C11]
*Q* Of 1 and 2 , which carries the smaller reported Ki figure? State the label of the item chosen.
*A* 1
(1: 160 pM, 2: 2220 pM)

====

Molecular target: KAT2A (Homo sapiens (Human))
Assay: KAT2A acetyltransferase biochemical assay (RapidFire mass spectrometry, AcCoA to CoA)
Details: KAT2A Ki at 1 μM AcCoA, 5 μM H3 1-21 peptide, 0.5 nM KAT2A, 90-minute reaction
pKi: −log10 of the molar value.
Measure: pKi

(1) CCS(=O)(=O)NC(=O)C(C)(C)c1ccc(O[C@@H]2CC[C@@H](NC(=O)C3(F)CNC4(CCC4)C3)C2)c(-c2cccc(F)c2C2CCC2)c1 (single isomer, unassigned) [Example B1]
(2) CN1CC(C)(C)C[C@H]1C(=O)N[C@@H]1CC[C@@H](Oc2ccc(-c3cn(C)nc3C(=O)O)cc2-c2cccc(F)c2C2CCC2)C1
*Q* // which entry has the larger pKi value, 1 or 2 ? Label of pick, please.
*A* 2

====

Biological target: KAT2A (Homo sapiens (Human))
Assay: KAT2A acetyltransferase biochemical assay (RapidFire mass spectrometry, AcCoA to CoA)
Conditions: read-out: KAT2A Ki at 1 μM AcCoA, 5 μM H3 1-21 peptide, 0.5 nM KAT2A, 90-minute reaction
Measure: Ki (nM)

Reference set, count: 3
>  <Compound>
CCc1c(F)cccc1-c1cc([C@@H](C)C(=O)NS(=O)(=O)C2(C)CC2)ccc1O[C@@H]1CC[C@@H](NC(=O)[C@@]2(F)CNC3(CCC3)C2)C1 (single isomer, unassigned) [Example C83]

>  <Measure>
Ki

>  <Unit Label>
nM

>  <Test Value>
0.08

$$$$
>  <Compound>
CCc1c(F)cccc1-c1cc([C@@H](C)C(=O)NS(=O)(=O)C2(C)CC2)ccc1O[C@@H]1CC[C@@H](NC(=O)[C@@]2(F)CNC3(CCC3)C2)C1 (single isomer, unassigned) [Example C82]

>  <Measure>
Ki

>  <Unit Label>
nM

>  <Test Value>
0.07

$$$$
>  <Compound>
CC(C)c1c(F)cccc1-c1cc(C(C)(C)C(=O)NS(=O)(=O)C2(C)CC2)ccc1O[C@@H]1CC[C@@H](NC(=O)[C@@]2(F)CNC3(CCC3)C2)C1 (single isomer, unassigned) [Example C43]

>  <Measure>
Ki

>  <Unit Label>
nM

>  <Test Value>
0.06

$$$$

(a) CC(C)(C(=O)NS(=O)(=O)N1CC(F)C1)c1ccc(O[C@@H]2CC[C@@H](NC(=O)[C@]3(F)CNC4(CCC4)C3)C2)c(-c2cccc(F)c2C2CCC2)c1 (single isomer, unassigned) [Example B6]
(b) CCn1cc(-c2ccc(O[C@@H]3CC[C@@H](NC(=O)[C@@]4(F)CNC5(CCC5)C4)C3)c(-c3cccc(F)c3C3CCC3)c2)c(C(=O)O)n1 (single isomer, unassigned) [Example J13]
(c) CC1(S(=O)(=O)NC(=O)Cc2ccc(O[C@@H]3CC[C@@H](NC(=O)[C@@]4(F)CNC5(CCC5)C4)C3)c(-c3cccc(F)c3C3CCC3)c2)CC1 [Example B35]
*Q* I would appreciate it if you could sort these 3 compounds by Ki, starting from the smallest number. Sort the labels as requested; that list is your answer.
*A* c, b, a
(c: 0.04 nM, b: 0.14 nM, a: 746 nM)

(P) CCc1c(F)cccc1-c1cc(C(C)(C)C(=O)NS(C)(=O)=O)ccc1O[C@@H]1CC[C@@H](NC(=O)[C@@]2(F)CNC3(CCCC3)C2)C1 (single isomer, unassigned) [Example C26]
(Q) CN1CC(C)(C)C[C@H]1C(=O)N[C@@H]1CC[C@@H](Oc2cccc(C(=O)NS(=O)(=O)N3CCC3)c2-c2cccc(F)c2C2CCC2)C1 (atropisomer, axis not shown) [Example I13]
(R) C[C@@H](C(=O)O)c1nn(C)cc1-c1ccc(O[C@@H]2CC[C@@H](NC(=O)[C@]3(F)CNC4(CCC4)C3)C2)c(-c2cccc(F)c2C2CCC2)c1 (single isomer, unassigned) [Example J4]
*Q* Please put the entries in order of rising Ki. Answer by listing the labels in the requested order.
*A* R, Q, P
(R: 0.3 nM, Q: 25 nM, P: 338 nM)
